molecular target: UniProtKB Q9NR96; assay: TLR7/8/9 Inhibition Reporter Assays (TLR9); conditions: HEK-Blue cells overexpressing human TLR9, SEAP reporter, stimulated with TLR9 ligand ODN2006
Sequence (Q9NR96 26-1032): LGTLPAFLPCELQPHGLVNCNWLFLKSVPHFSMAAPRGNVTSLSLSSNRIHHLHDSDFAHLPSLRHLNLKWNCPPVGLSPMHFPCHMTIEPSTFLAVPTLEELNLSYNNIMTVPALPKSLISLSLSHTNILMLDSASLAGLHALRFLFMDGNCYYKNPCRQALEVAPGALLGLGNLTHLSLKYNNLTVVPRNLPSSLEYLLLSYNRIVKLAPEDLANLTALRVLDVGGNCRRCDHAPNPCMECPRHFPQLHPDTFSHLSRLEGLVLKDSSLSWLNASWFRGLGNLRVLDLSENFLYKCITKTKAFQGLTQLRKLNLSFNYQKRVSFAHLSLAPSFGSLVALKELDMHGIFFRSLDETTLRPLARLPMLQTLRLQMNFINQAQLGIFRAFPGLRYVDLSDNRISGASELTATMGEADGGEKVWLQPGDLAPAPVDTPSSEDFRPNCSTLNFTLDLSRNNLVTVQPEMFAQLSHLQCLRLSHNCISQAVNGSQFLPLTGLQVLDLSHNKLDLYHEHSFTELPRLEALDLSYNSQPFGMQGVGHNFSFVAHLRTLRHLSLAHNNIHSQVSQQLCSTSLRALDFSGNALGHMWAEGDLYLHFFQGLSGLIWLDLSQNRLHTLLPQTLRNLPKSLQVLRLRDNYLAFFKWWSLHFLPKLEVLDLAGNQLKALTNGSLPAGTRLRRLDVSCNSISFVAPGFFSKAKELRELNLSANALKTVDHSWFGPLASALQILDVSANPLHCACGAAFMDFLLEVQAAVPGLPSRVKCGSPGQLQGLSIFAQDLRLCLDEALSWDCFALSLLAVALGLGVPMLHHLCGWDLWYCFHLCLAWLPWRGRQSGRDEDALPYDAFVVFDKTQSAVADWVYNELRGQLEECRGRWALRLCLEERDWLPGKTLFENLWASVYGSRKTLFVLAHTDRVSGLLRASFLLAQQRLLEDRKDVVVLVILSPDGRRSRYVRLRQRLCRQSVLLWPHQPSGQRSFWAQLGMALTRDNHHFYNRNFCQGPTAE
ENDPOINT: IC50 (nM)

Some compounds with recorded IC50:
- SMILES_NOTATION: "COc1ccc(-c2nc3c(C)nc(-c4ccc(N5CCN(CC6CC6)CC5)cc4)cc3n2C)cc1OC"
  UNIT_OF_MEASURE: "nM"
  RECORDED_MEASUREMENT: 140
- SMILES_NOTATION: "Cc1nc(C2CCN(C3CCN(CC(C)C)CC3)CC2)cc2c1nc(-c1ccc(S(C)(=O)=O)cc1)n2C"
  UNIT_OF_MEASURE: "nM"
  RECORDED_MEASUREMENT: 36
- SMILES_NOTATION: "CC(C)CN1CCC(N2CC=C(c3cc4c(nc(-c5ccc(S(C)(=O)=O)cc5)n4C)c(C(F)(F)F)n3)CC2)CC1"
  UNIT_OF_MEASURE: "nM"
  RECORDED_MEASUREMENT: 330
- SMILES_NOTATION: "COc1ccc(-c2nc3c(C)nc(-c4ccc(N5CC6(C5)CN(C5CCC5)C6)cc4)cc3n2C)cc1OC"
  UNIT_OF_MEASURE: "nM"
  RECORDED_MEASUREMENT: 13
- SMILES_NOTATION: "COc1ccc(-c2nc3c(C)nc(-c4ccc(N5C[C@@H]6CN(C(C)C)C[C@@H]6C5)cc4)cc3n2C)cc1OC"
  UNIT_OF_MEASURE: "nM"
  RECORDED_MEASUREMENT: 24
- SMILES_NOTATION: "Cc1nc(-c2ccc(N3CCN(CC(C)C)CC3)cc2)cc2c1nc(-c1ccc(S(C)(=O)=O)cc1)n2C"
  UNIT_OF_MEASURE: "nM"
  RECORDED_MEASUREMENT: 240

a: COc1ccc(-c2nc3c(C)nc(-c4ccc(N5C[C@H]6CN(CC(C)(C)O)C[C@H]6C5)cc4)cc3n2C)cc1OC
b: COC1CCN(Cc2ccc(-c3ccc(-c4cc5c(nc(-c6ccc(S(C)(=O)=O)cc6)n5C)c(C)n4)cc3)nc2)CC1
c: COc1ccc(-c2nc3cnc(-c4ccc(N5C[C@@H]6CN(C(C)C)C[C@@H]6C5)cc4)cc3n2C2CC2)cc1OC
Problem: Order the items by recorded IC50; the first position goes to the largest value. I'd appreciate it if you listed the labels in the requested order.
Result: b, a, c
